Experiment: clinical
Details: human, plasma, intravenous, Cmax, Median, Sequential midostaurin n = 13; cycle 1, day 1
Parameter measured: Cmax (ng/mL)

Chem smiles: COc1cccc2c1C(=O)c1c(O)c3c(c(O)c1C2=O)C[C@@](O)(C(C)=O)C[C@@H]3O[C@H]1C[C@H](N)[C@H](O)[C@H](C)O1
Assay result: 76

---

Experiment: clinical
Conditions: human, plasma, intravenous, C24 h, Median, Concomitant midostaurin n = 13; cycle 1, day 1

Compound: COc1cccc2c1C(=O)c1c(O)c3c(c(O)c1C2=O)C[C@@](O)(C(C)=O)C[C@@H]3O[C@H]1C[C@H](N)[C@H](O)[C@H](C)O1 [daunorubicin]
concentration at 24 h (µg/mL): 0.0174
